Target: butyrylcholinesterase (Rattus norvegicus, UniProt Q9JKC1)
Construct: Butyrylcholinesterase: rat serum; from tissue; host or cells: rat serum
Sequence (Q9JKC1 24-597): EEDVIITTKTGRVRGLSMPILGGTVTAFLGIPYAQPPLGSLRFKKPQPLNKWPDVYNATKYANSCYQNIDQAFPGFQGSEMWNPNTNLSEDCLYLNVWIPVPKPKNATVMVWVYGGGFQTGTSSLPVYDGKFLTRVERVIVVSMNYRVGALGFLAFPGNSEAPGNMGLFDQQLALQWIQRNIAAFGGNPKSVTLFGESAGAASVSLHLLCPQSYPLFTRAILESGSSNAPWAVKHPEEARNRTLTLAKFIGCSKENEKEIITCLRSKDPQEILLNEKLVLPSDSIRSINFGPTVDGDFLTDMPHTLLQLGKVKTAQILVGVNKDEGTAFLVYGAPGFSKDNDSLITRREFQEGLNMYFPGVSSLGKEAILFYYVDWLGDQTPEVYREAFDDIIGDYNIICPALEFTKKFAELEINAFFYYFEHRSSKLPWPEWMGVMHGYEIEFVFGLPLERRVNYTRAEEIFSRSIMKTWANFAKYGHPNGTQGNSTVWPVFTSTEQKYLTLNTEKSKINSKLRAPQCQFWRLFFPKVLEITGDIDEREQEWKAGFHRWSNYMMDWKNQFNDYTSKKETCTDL
Assay: inhibition of butyrylcholinesterase (rat serum)
Assay type: biochemical
Conditions: rat serum enzyme; final concentration 4×10−5 mol/L
Procedure: Sample processing: All samples were formulated as 10-2 mol/L solution by using 100% DMSO. 10-2 mol/L solution was used in microdetermination. 1 μL was taken to use in single tube experiment. Solvent control: 0.4% DMSO was used in microdetermination. The inhibition ratio of the sample was obtained wherein the effect of solvent was deducted. Butyrylcholinesterase: rat serum
Field: butyrylcholinesterase inhibitory activity inhibition ratio (%). Provide a value for each of the compounds that follow.
Numbers only, in %.

| compound | readout_value |
| --- | --- |
| COc1cc2c(cc1OC)C(=O)C(CC1(F)CCN(Cc3cc(C(F)(F)F)cc(C(F)(F)F)c3)CC1)C2 (centres unmarked) | 4.36 |
| COc1cc2c(cc1OC)C(=O)C(CC1(F)CCN(CC3CCCCC3)CC1)C2 (centres unmarked) | 0.36 |
| COc1cc2c(cc1OC)C(=O)C(CC1(F)CC3CCC(C1)N3Cc1ccccc1F)C2 (centres unmarked) | 64.31 |
| COc1cc2c(cc1OC)C(=O)C(CC1(F)CCN(Cc3ccccc3C#N)CC1)C2 (centres unmarked) | 36.42 |
| COc1cc2c(cc1OC)C(=O)C(CC1(F)CCN(Cc3ccc(F)cc3)CC1)C2 (centres unmarked) | 0.00 |

Below are some compounds; for each one, tell me its butyrylcholinesterase inhibitory activity inhibition ratio (%).
1. COc1cc2c(cc1OC)C(=O)C(CC1(F)CCN(Cc3ccccc3F)CC1)C2 (centres unmarked)
2. COc1cc2c(cc1OC)C(=O)C(CC1(F)CCN(Cc3ccc(OC(F)(F)F)cc3)CC1)C2 (centres unmarked)
3. COc1cc2c(cc1OC)C(=O)C(CC1(F)CCN(Cc3ccccc3)CC1)C2 (centres unmarked)
4. COc1cc2c(cc1OC)C(=O)C(CC1(F)CCN(Cc3ccccc3C(F)(F)F)CC1)C2 (centres unmarked)
5. COc1cc2c(cc1OC)C(=O)C(CC1(F)CCN(Cc3cccc(C)c3)CC1)C2 (centres unmarked)
6. COc1cc2c(cc1OC)C(=O)C(CC1(F)CCN(Cc3ccc(C(F)(F)F)cc3)CC1)C2 (centres unmarked)
7. COc1cc2c(cc1OC)C(=O)C(CC1(F)CCN(Cc3ccc(F)cc3F)CC1)C2 (centres unmarked)
8. COc1cc2c(cc1OC)C(=O)C(CC1(F)CC3CCC(C1)N3Cc1cc(F)cc(F)c1F)C2 (centres unmarked)

1: 71.58; 2: 1.24; 3: 71.58; 4: 14.99; 5: 64.92; 6: 0.00; 7: 83.11; 8: 13.53

Below are some compounds; for each one, tell me its butyrylcholinesterase inhibitory activity inhibition ratio (%).
1. COc1cc2c(cc1OC)C(=O)C(CC1(F)CCN(Cc3ccccc3C#N)CC1)C2.Cl (centres unmarked)
2. O=C1c2cc(Cl)c(Cl)cc2CC1CC1(F)CCN(Cc2ccccc2F)CC1 (centres unmarked)

1: 20.80; 2: 88.0

Below are some compounds; for each one, tell me its butyrylcholinesterase inhibitory activity inhibition ratio (%).
1. COc1cc2c(cc1OC)C(=O)C(CC1(F)CC3CCC(C1)N3Cc1ccc(C(C)(C)C)cc1)C2 (centres unmarked)
2. COc1cc2c(cc1OC)C(=O)C(CC1(F)CC3CCC(C1)N3Cc1ccccc1[N+](=O)[O-])C2 (centres unmarked)
3. COc1cc2c(cc1OC)C(=O)C(CC1(F)CCN(Cc3ccc(C(C)(C)C)cc3)CC1)C2 (centres unmarked)
4. CCCOc1cc2c(cc1OCCC)C(=O)C(CC1(F)CCN(Cc3ccccc3F)CC1)C2 (centres unmarked)
5. COc1cc2c(cc1OC)C(=O)C(CC1(F)CCN(Cc3cc(C)cc(C)c3)CC1)C2 (centres unmarked)

1. 7.63
2. 0.73
3. 8.40
4. 71.0
5. 72.82

Below are some compounds; for each one, tell me its butyrylcholinesterase inhibitory activity inhibition ratio (%).
1. COc1cc2c(cc1OC)C(=O)C(CC1(F)CCN(Cc3ccc(F)c(F)c3F)CC1)C2 (centres unmarked)
2. COc1cc2c(cc1OC)C(=O)C(CC1(F)CCN(Cc3ccccc3F)C(C)C1)C2 (centres unmarked)
3. COc1cc2c(cc1OC)C(=O)C(CC1(F)CCN(Cc3cc(F)cc(F)c3F)CC1)C2 (centres unmarked)

38.15
76.62
10.08

Below are some compounds; for each one, tell me its butyrylcholinesterase inhibitory activity inhibition ratio (%).
1. COc1cc2c(cc1OC)C(=O)C(CC1(F)CCN(Cc3ccccc3Br)CC1)C2 (centres unmarked)
2. COc1cc2c(cc1OC)C(=O)C(CC1(F)CC3CCC(C1)N3Cc1cccc(C)c1)C2 (centres unmarked)
3. COc1cc2c(cc1OC)C(=O)C(CC1(F)CC3CCC(C1)N3Cc1cccc(F)c1)C2 (centres unmarked)
4. COc1cc2c(cc1OC)C(=O)C(CC1(F)CC3CCC(C1)N3Cc1ccc(F)cc1)C2 (centres unmarked)
5. COc1cc2c(cc1OC)C(=O)C(CC1(F)CCN(Cc3cccc(C#N)c3)CC1)C2 (centres unmarked)
6. O=C1c2cc(OCC(F)(F)F)c(OCC(F)(F)F)cc2CC1CC1(F)CCN(Cc2ccccc2F)CC1 (centres unmarked)

1: 54.77; 2: 58.86; 3: 61.04; 4: 82.56; 5: 29.25; 6: 70.0
